These data points were gathered from PubChem BioAssay (NCI).

Assay: NCI Yeast Anticancer Drug Screen. Data for the mec2-1 strain (AID 157)
Conditions: S. cerevisiae mec2-1 strain, at 50.0 µM, hits give high values
The panel holds about 79,000 compounds, 15% with a hit somewhere; the sample as a whole holds those more often.
Measured attribute: growth inhibition (%)
Express your answer in %, writing the number without its unit.

Study these solved cases before continuing.
molecule=O=C(C=P(c1ccccc1)(c1ccccc1)c1ccccc1)c1ccccc1-c1ccccc1C(=O)C=P(c1ccccc1)(c1ccccc1)c1ccccc1 assay_result=90.8
molecule=COC(=O)C(=[N+]=[N-])C(=O)c1ccc(Cl)cc1 assay_result=96.2
molecule="CCOC(=O)C1=C(c2ccccc2)SC(c2ccccc2)N(C(C)C)C1=O (stereo unspecified)" assay_result=88

Ask: Which growth inhibition is listed for O=C(O)C(Cc1cc(I)c(O)c(I)c1)c1ccccc1 (stereo unspecified) ?
Result: 19.2

Ask: Subsequent entry: CCC(c1ccc(O)cc1)C(O)(CC)c1ccc(O)cc1 (stereo unspecified)
Result: 28.9

Ask: Please give the result for "Nc1c(-c2ccc(Cl)cc2)[n+]([O-])c2ccccc2[n+]1[O-]" too.
Result: 13.2

Ask: Same thing, different molecule: "O=S(=O)(Nc1ccccn1)c1ccc(N=Cc2c3ccccc3nc3cc(Cl)ccc23)cc1"
Result: 85.8

Ask: Another molecule to look at: "CCOCCNc1ncnc2c1cnn2C"
Result: -18.4

Ask: And the next one, "COc1ccc(OP2(Oc3ccc(OC)cc3)=NP(Oc3ccc(OC)cc3)(Oc3ccc(OC)cc3)=NP(Oc3ccc(OC)cc3)(Oc3ccc(OC)cc3)=NP(Oc3ccc(OC)cc3)(Oc3ccc(OC)cc3)=N2)cc1" ?
Result: 65.8

Ask: Same question for "O=C1OCC/C1=C1/CCOC1" please.
Result: 99.3

Ask: Again, but for "CN(Cc1cc(C(C)(C)C)cc(Br)c1O)Cc1cc(C(C)(C)C)cc(Br)c1O"
Result: 86.2

Ask: For CC(C)=CN(C)C (tested in a mixture with another compound) then?
Result: 96.7

Ask: Please answer likewise for "CCN(CC)CCNc1ccc(C)c2oc3ccc(O)cc3c(=O)c12"
Result: 75.5

Ask: # iterate: "O=C(N/N=C/c1cc(Br)ccc1O)c1ccccc1"
Result: -18.9

Ask: # repeat for CC(C(=O)c1ccc2cc(Br)c3ccccc3c2c1)N(C)C (stereo unspecified)
Result: 98.5

Ask: Repeat with "CC(C)=CCC/C(C)=C/COC(=O)Nc1ccccc1"
Result: 18.7

Ask: Lookup "CC1=C(C(=O)NCc2ccccc2)C(c2ccccc2O)C(C(=O)NCc2ccccc2)=C(C)N1"
Result: 85

Ask: Do the same for "CCCCN1CCN(c2ccc([N+](=O)[O-])c3no[n+]([O-])c23)CC1" please
Result: 93.2

---

Assay: NCI Yeast Anticancer Drug Screen. Data for the mlh1 rad18 strain (AID 175)
Details: S. cerevisiae mlh1 rad18 strain growth inhibition; at 5.0 µM (retest, dose inferred, filed as 0.5); hits give high values
Compounds without any hit were thinned out: in the full panel of roughly 79,000, 15% have a hit.
Reported growth inhibition values are given for each entry in this list.
Write it as a number; the unit % goes unstated.

As a guide, the following entries are already answered.
molecule=COc1ccc(/C(Cl)=C(\C=O)c2ccc(Cl)cc2)cc1 unit_string=% assay_result=-6
molecule=Cc1cc(O)c(/C=N/C(=S)Nc2ccc(S(N)(=O)=O)cc2)c(=O)o1 unit_string=% assay_result=9
molecule="CC(C)N1C(=O)c2ccccc2S1(Cl)c1ccccc1 (configuration not stated)" unit_string=% assay_result=-2
molecule=COCc1ccc([N+](=O)[O-])o1 unit_string=% assay_result=17
molecule=COC(=O)CCC(=O)NCCc1ccc2c([nH]c3ccccc32)c1C unit_string=% assay_result=3

Ask: growth inhibition lookup needed for "Cn1c(-c2ccccc2)c(CCNC(=O)C2CCC2)c2ccccc21" , thanks.
Result: 18

Ask: Field entry: CCCCCCCCCCCCCCCCCC[N+]1(C)CCC[N+](C)(CCCCCCCCCCCCCCCCCC)CC1 (configuration not stated)
Result: 2

Ask: Entry to check: "CNc1ccc([N+](=O)[O-])cc1"
Result: 0

Ask: What would you report for "Cc1ncc(Br)c(C(=O)O)n1" ?
Result: -1

Ask: Here is the next molecule: "COc1ccc(-n2cc(-c3ccc(Cl)cc3)c3c(N)ncnc32)cc1"
Result: 20

Ask: And COc1ccc2cc(C3CCCC3(C)CC(=O)O)ccc2c1 (configuration not stated) ?
Result: 1

---

Test: NCI Yeast Anticancer Drug Screen. Data for the mec2-1 strain (AID 157)
Details: S. cerevisiae mec2-1 strain, at 5.0 µM (retest, dose inferred, filed as 0.5), hits give high values
The panel holds about 79,000 compounds, 15% with a hit somewhere; the sample as a whole holds those more often.
Listed here: items and their measured growth inhibition.
Numeric only. Scale: %

These solved cases illustrate the format of a correct answer.
molecule=Oc1ccccc1C1N(Cc2ccc(Cl)cc2)CCN1Cc1ccc(Cl)cc1 assay_result=7
molecule="OC(CN1CCCCC1)c1ccc2c(ccc3ccccc32)c1 (stereo unspecified)" assay_result=6
molecule=Cc1ccc(C(c2ccc(N(C)C)cc2)c2ccc(N(C)C)cc2)cc1 assay_result=99
molecule=O=C(Nc1ccc(C2=NCCN2)cc1)c1cc(C(=O)Nc2ccc(C3=NCCN3)cc2)cc(C(=O)Nc2ccc(C3=NCCN3)cc2)c1 assay_result=5
molecule="C=C1C2Oc3ccccc3C1N(c1ccccc1)O2 (stereo unspecified)" assay_result=8
molecule="O=C1C(CN2CCCC2)C(O)=C(c2ccccc2)N1c1ccccc1 (stereo unspecified)" assay_result=1
molecule=CCCCCCCCCCSCCO assay_result=51
molecule=COc1ccc(CN2CCCN(Cc3ccc(OC)cc3)C2Cc2cc(Cl)ccc2OC)cc1 assay_result=-3

Ask: Entry under review: "CCCCCCCCCCCCCCCC[N+](C)(C)CCCCCC(=O)OC" . Reported growth inhibition?
Result: 100

Ask: Next entry: CC(C)(Br)C(Br)C(=O)C(Br)C(C)(C)Br (stereo unspecified)
Result: -2

Ask: Further, for "N#Cc1ccccc1[N+](=O)[O-]" ?
Result: 1

---

Experiment: NCI Yeast Anticancer Drug Screen. Data for the bub3 strain (AID 167)
Conditions: S. cerevisiae bub3 mutant strain, at 50.0 µM (retest, dose inferred, filed as 5.0), hits give high values
About 79,000 compounds went through this panel and 15% of them were active in at least one assay; those are over-represented in the sample as a whole. Activity calls are given as the source filed them. No stated cut-off is given here; in the data, active means growth inhibition above about 70%; inactive means the rest.
Measured attribute: growth inhibition

compound=CCN(CC)CCNc1ccc(C)c2sc3ccc(OC)cc3c(=O)c12 assay_result="99% (active)"

Ask: Would you mind telling me what growth inhibition value was observed for O=C(CCCN1CCN2Cc3[nH]c4ccccc4c3CC2C1)c1ccc(F)cc1 (stereo unspecified) ?
Result: 60% (inactive)

Ask: Try the compound "O=C(CCn1[nH]c(=O)c(Cl)c(Cl)c1=O)NNc1ccc([N+](=O)[O-])cc1[N+](=O)[O-]"
Result: 19% (inactive)

Ask: Similarly, "O=C(NCCCl)Nc1c2ccccc2nc2ccccc12" ?
Result: 19% (inactive)

Ask: Field entry: CN(C)c1cc2c(cc1[N+](=O)[O-])-c1ccccc1C2O (stereo unspecified)
Result: 60% (inactive)

Ask: Same again, this time with C=CC1(NC(=O)c2ccccc2)CCC(C(C)(C)C)CC1 (stereo unspecified)
Result: 95% (active)

Ask: Can you handle O=C1CCC(Cc2ccc(C(F)(F)F)cc2)C(=O)N1 (stereo unspecified) next?
Result: -2% (inactive)

Ask: Ok, now "O=C1C=CC(=O)N1c1cccc([N+](=O)[O-])c1"
Result: 99% (active)

Ask: Now this one: "O=C1c2cccc(S(=O)(=O)O)c2C(=O)c2cccc([N+](=O)[O-])c21"
Result: 25% (inactive)

Ask: # repeat for "Cc1cc(C)c2c(c1)sc1nncn12"
Result: 97% (active)

Ask: Same question, "Cc1c2ccncc2c(C)c2c1sc1ccccc12" this time
Result: 95% (active)

---

Assay: NCI Yeast Anticancer Drug Screen. Data for the mlh1 rad18 strain (AID 175)
Settings: S. cerevisiae mlh1 rad18 strain growth inhibition; at 50.0 µM (retest, dose inferred, filed as 5.0); hits give high values
About 79,000 compounds went through this panel and 15% of them were active in at least one assay; those are over-represented in the sample as a whole.
Measured attribute: growth inhibition (%)
Numeric only. Scale: %

compound="S=C(Nc1ccccc1)NC1CC2C=CC1CC2 (stereo not drawn)" measured_attribute="growth inhibition" assay_result=-13
compound="O=C(O)c1cccc(S(=O)(=O)NN2C(=O)CSC2c2c(O)ccc3ccccc23)c1 (stereo not drawn)" measured_attribute="growth inhibition" assay_result=82
compound="C/C(=N/NC(N)=S)C(CN1CCOCC1)C(C1=C(O)c2ccccc2OC1)c1ccccc1 (stereo not drawn)" measured_attribute="growth inhibition" assay_result=26
compound="O=[N+]([O-])C12CCCCC1([N+](=O)[O-])CCCC2 (stereo not drawn)" measured_attribute="growth inhibition" assay_result=28

Ask: Give its growth inhibition value. Item: COC(=O)[C@@]12OC[C@]34[C@H]([C@@H](O)[C@@H]1O)[C@@]1(C)CC(=O)C(O)=C(C)[C@@H]1C[C@H]3OC(=O)[C@H](OC(=O)C(Cc1ccccc1)NC(=O)OC(C)(C)C)[C@@H]24 (stereo partly drawn)
Result: 58

Ask: Request: "COc1cc(C(c2ccccc2)c2ccccc2)c2ccccc2c1O"
Result: 75

Ask: What about O=C1CCC(O)N1CN1C(=O)CCC1O (stereo not drawn) ?
Result: -10

Ask: Now give it for "COc1ccc(/C=C2\CCCc3ccccc3C2=O)cc1" too.
Result: 81

Ask: Now consider "O=C(O)c1ccc2ccccc2c1C(=O)c1cccc2ccccc12" and answer again.
Result: 15

Ask: Another: O=C(O)c1ccc(N=CC2CO2)cc1 (stereo not drawn)
Result: 22

Ask: Same for CCN1C2=NC(=O)N(C)C(=O)C2(Cl)C(C(SC)S(=O)(=O)c2ccc(C)cc2)c2ccccc21 (stereo not drawn)
Result: 2

Ask: And for CC(OC(=O)Nc1cccc(Cl)c1)c1ccccc1 (stereo not drawn) ?
Result: 99

Ask: What about "CN(C)CC(CN(C)C)C(=O)c1ccc(Oc2ccc(Cl)cc2)cc1" ?
Result: 98

Ask: And then "COc1cc(C=Nc2ccc(Cl)cc2)ccc1OC(=O)c1ccccc1" , what is it?
Result: -18

Ask: Same lookup for C1=CC2C(c3cccc4ccccc34)O[C@H]2O1 (stereo partly drawn) , please.
Result: 99

Ask: Quick one: "CCOc1c(N=Nc2ccccc2OC)c(-c2ccccc2)nn1C(N)=S"
Result: 39

Ask: Another compound to look at: OC1c2cc(Cl)cc(Cl)c2OC2(N3CCCC3)CCCCC12 (stereo not drawn)
Result: 96

Ask: And what about the compound "Cc1csc2c1C(=O)c1ccsc1C2=O" ?
Result: 99

Ask: Next record, please: "O=S(=O)(Sc1ccccc1)C(c1ccccc1)c1ccccc1"
Result: 72

Ask: Follow-up item: c1ccc(B2OC(c3ccccc3)C(c3ccccc3)O2)cc1 (stereo not drawn)
Result: 9

Ask: Entry to check: O=C(CC(O)(C(F)(F)F)C(F)(F)F)C(c1ccccc1)C(O)(C(F)(F)F)C(F)(F)F (stereo not drawn)
Result: 93

Ask: Try this compound too: C=C1CC(C)(COc2ccc3c(C)c(Cl)c(=O)oc3c2)OC1=O (stereo not drawn)
Result: 97

Ask: Also "O=C1OCC/C1=C1/CCOC1" ?
Result: 97
